// reported Emax per item
# EXPERIMENTAL TARGET: CB1 (mutant) (Homo sapiens)
# EXPERIMENT DESCRIPTION: R-SAT functional receptor assay, CB1 (mutant, truncated after amino acid 417)
# Type: cell-based
# ASSAY CONTEXT: Appendix A; R-SAT CB1; receptor form not stated; relative to SR141716 (100%); read-out: % Inhibition
MEASURED ENDPOINT: Emax (%)

compound="O=C(NCc1cccc(Cl)c1)c1ccc2c(c1)N=C(c1ccc(F)cc1)c1ccccc1S2 [drawing 701]" result_number=103
compound="O=C(NNCC(F)(F)F)c1ccc2c(c1)N=C(c1ccc(Cl)cc1)c1ccccc1S2 [drawing 816]" result_number=81
compound="CC(CNC(=O)c1ccc2c(c1)N=C(c1ccc(Cl)cc1)c1ccccc1S2)c1ccccc1 (stereo not shown) [drawing 933]" result_number=106
compound=O=C(NN1CCOCC1)c1ccc2c(c1)N=C(c1ccc(F)cc1)c1ccccc1S2 result_number=77

---

# EXPERIMENTAL TARGET: CB1 (mutant) (Homo sapiens, UniProt P21554)
# Sequence (P21554 1-417, change not shown): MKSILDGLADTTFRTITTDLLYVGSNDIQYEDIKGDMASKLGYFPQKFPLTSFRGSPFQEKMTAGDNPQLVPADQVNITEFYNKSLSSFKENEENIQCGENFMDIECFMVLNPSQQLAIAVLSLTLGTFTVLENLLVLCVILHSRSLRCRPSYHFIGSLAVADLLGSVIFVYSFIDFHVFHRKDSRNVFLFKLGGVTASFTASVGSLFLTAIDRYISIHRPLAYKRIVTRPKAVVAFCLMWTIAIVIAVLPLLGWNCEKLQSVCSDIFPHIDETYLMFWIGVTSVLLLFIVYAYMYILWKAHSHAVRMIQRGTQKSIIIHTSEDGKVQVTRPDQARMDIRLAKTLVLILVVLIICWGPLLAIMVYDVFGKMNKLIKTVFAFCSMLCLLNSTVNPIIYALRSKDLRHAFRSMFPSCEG
# EXPERIMENT DESCRIPTION: R-SAT functional receptor assay, CB1 (mutant, truncated after amino acid 417)
# Format: cell-based
# ASSAY CONTEXT: Appendix A; R-SAT CB1; receptor form (mutant or wild-type) not stated; read-out: pIC50 (converted)
MEASURED ENDPOINT: IC50 (nM)

molecule="COc1ccc(C2=Nc3cc(C(=O)NC4CCCC4)ccc3Sc3ccccc32)cc1 [drawing 852]" readout_units=nM result_number=158
molecule="COc1ccc(C2=Nc3cc(C(=O)NC4CCCCC4)ccc3Sc3ccccc32)cc1 [drawing 1153]" readout_units=nM result_number=39.8
molecule="COc1ccc(C2=Nc3cc(C(=O)NCCC(C)C)ccc3Sc3ccccc32)cc1 [drawing 965]" readout_units=nM result_number=20
molecule="O=C(NN1CCCCC1)c1ccc2c(c1)N=C(c1ccccc1)c1ccccc1S2 [drawing 897]" readout_units=nM result_number=15.8
molecule=CCCC1=Nc2cc(C(=O)N3CCC(N4CCCCC4)CC3)ccc2Sc2ccccc21 readout_units=nM result_number=2510

---

# EXPERIMENT DESCRIPTION: Clearance study, liver microsomes (rats)
# ASSAY CONTEXT: rat, pH 7.4
// reported microsomal CLint at 1 μM per item
MEASURED ENDPOINT: microsomal CLint at 1 μM (µL/min/mg)

compound="O=C(NCc1cccs1)c1ccc2c(c1)N=C(c1cccc(Cl)c1)c1ccccc1S2 [drawing 1733]" result_number=99
compound="O=C(NCCC(F)(F)F)c1ccc2c(c1)N=C(c1cccc(Cl)c1)c1ccccc1S2 [drawing 1721]" result_number=40
compound="O=C(NCc1cccnc1)c1ccc2c(c1)N=C(c1ccc(F)cc1)c1ccccc1S2 [drawing 1724]" result_number=107
compound="O=C(NCc1cccc(Cl)c1)c1ccc2c(c1)N=C(c1ccc(F)cc1)c1ccccc1S2(=O)=O [drawing 1670]" result_number=31
compound="O=C(NCc1ccccc1Cl)c1ccc2c(c1)N=C(c1ccccc1)c1ccccc1S2 [drawing 1780]" result_number=178
compound="CCCCNC(=O)c1ccc2c(c1)N=C(c1ccc(Cl)cc1)c1ccccc1[S+]2[O-] (centres unmarked) [drawing 1736]" result_number=41
compound="COc1ccc(C2=Nc3cc(C(=O)NCC(C)C)ccc3Sc3ccccc32)cc1 [drawing 1708]" result_number=113
compound="CC(C)CNC(=O)c1ccc2c(c1)N=C(c1ccc(Cl)cc1)c1ccc(Cl)cc1S2 [drawing 1718]" result_number=37
compound="Cc1ccsc1C1=Nc2cc(C(=O)NN3CCCCC3)ccc2Sc2ccccc21 [drawing 1730]" result_number=304
compound="CCCCNC(=O)c1ccc2c(c1)N=C(c1cccc(F)c1)c1ccccc1S2 [drawing 1700]" result_number=152
compound="CC(C)CNC(=O)c1ccc2c(c1)N=C(c1ccc(Cl)cn1)c1ccc(F)cc1S2 [drawing 1746]" result_number=175
compound="O=C(NCc1ccco1)c1ccc2c(c1)N=C(c1ccc(Cl)c(Cl)c1)c1ccccc1S2 [drawing 1666]" result_number=25
compound="CCCNC(=O)c1ccc2c(c1)N=C(c1ccc(Cl)cc1)c1ccccc1S2 [drawing 1691]" result_number=63
compound="O=C(NCCc1cccnc1)c1ccc2c(c1)N=C(c1ccc(Cl)s1)c1ccccc1S2 [drawing 1690]" result_number=96
compound="O=C(NCc1ccccc1)c1ccc2c(c1)N=C(c1ccc(Cl)cc1)c1ccccc1S2 [drawing 1801]" result_number=63
compound="O=C(NCCCC(F)(F)F)c1ccc2c(c1)N=C(c1ccc(Cl)cc1)c1ccccc1S2 [drawing 1703]" result_number=86
compound="CCCCNC(=O)c1ccc2c(c1)N=C(c1ccc(Cl)cn1)c1ccccc1S2 [drawing 1704]" result_number=320

---

# EXPERIMENTAL TARGET: native CB1 receptors (Rattus norvegicus, UniProt P20272)
# Sequence (P20272 whole entry): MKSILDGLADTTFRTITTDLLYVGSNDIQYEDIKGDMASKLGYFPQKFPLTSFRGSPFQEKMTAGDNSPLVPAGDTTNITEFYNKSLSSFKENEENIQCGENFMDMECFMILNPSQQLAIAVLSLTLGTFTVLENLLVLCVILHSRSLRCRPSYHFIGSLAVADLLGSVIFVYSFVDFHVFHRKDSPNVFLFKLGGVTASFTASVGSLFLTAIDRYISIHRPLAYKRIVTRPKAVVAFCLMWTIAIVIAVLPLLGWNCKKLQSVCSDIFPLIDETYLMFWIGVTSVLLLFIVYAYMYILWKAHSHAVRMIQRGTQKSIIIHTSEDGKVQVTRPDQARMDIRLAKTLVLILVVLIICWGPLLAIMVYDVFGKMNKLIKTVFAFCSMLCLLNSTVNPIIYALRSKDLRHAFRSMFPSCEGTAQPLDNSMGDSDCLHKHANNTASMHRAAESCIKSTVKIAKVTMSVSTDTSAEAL
# EXPERIMENT DESCRIPTION: CB1 receptor rat binding assay ([3H]SR141716A, rat brain membranes)
# ASSAY CONTEXT: rat brain membranes, [3H]SR141716A
// reported Binding rat Inh % per item
MEASURED ENDPOINT: Binding rat Inh %

compound="Cc1ccc(CNC(=O)c2ccc3c(c2)N=C(c2cccc(F)c2)c2ccccc2S3)o1 [drawing 1481]" measured_endpoint="Binding rat Inh %" result=88%
compound="O=C(NCc1ccco1)c1ccc2c(c1)N=C(c1ccc(Cl)s1)c1ccccc1S2 [drawing 1383]" measured_endpoint="Binding rat Inh %" result=112%
compound="CCCNC(=O)c1ccc2c(c1)N=C(c1ccc(Cl)s1)c1ccccc1S2 [drawing 1236]" measured_endpoint="Binding rat Inh %" result=89%
compound="COCCNC(=O)c1ccc2c(c1)N=C(c1ccc(Br)cc1)c1ccccc1S2 [drawing 1358]" measured_endpoint="Binding rat Inh %" result=89%
compound="O=C(NC1CCCC1)c1ccc2c(c1)N=C(c1ccc(Cl)s1)c1ccccc1S2 [drawing 1542]" measured_endpoint="Binding rat Inh %" result=91%
compound="O=C(NCCc1cccnc1)c1ccc2c(c1)N=C(c1cccc(Cl)c1)c1ccccc1S2 [drawing 1293]" measured_endpoint="Binding rat Inh %" result=97%
compound="C[C@@H]1CCC[C@H](C)N1NC(=O)c1ccc2c(c1)N=C(c1ccccc1F)c1ccccc1S2 [drawing 1495]" measured_endpoint="Binding rat Inh %" result=78%
compound=O=C(NC1CCC(F)(F)CC1)c1ccc2c(c1)N=C(c1ccc(Cl)cc1F)c1ccccc1S2 measured_endpoint="Binding rat Inh %" result=78%

---

# EXPERIMENTAL TARGET: CB1 (mutant) (Homo sapiens, UniProt P21554)
# EXPERIMENT DESCRIPTION: R-SAT functional receptor assay, CB1 (mutant, truncated after amino acid 417)
# Format: cell-based
# ASSAY CONTEXT: Appendix A; R-SAT CB1; receptor form not stated; relative to SR141716 (100%); read-out: % Inhibition
MEASURED ENDPOINT: Emax (%)

molecule="O=C(NN1CCCCC1)c1ccc2c(c1)N=C(N1CCCCC1)c1ccccc1S2 [drawing 610]" experimental_target="CB1 (mutant) (Homo sapiens, UniProt P21554)" result_number=104
molecule=NS(=O)(=O)c1ccc(CNC(=O)c2ccc3c(c2)N=C(NCc2ccc(Cl)cc2)c2ccccc2S3)cc1 experimental_target="CB1 (mutant) (Homo sapiens, UniProt P21554)" result_number=41
molecule="CC(C)CNC(=O)c1ccc2c(c1)N=C(c1ccc(F)cc1)c1ccccc1S2 [drawing 677]" experimental_target="CB1 (mutant) (Homo sapiens, UniProt P21554)" result_number=107
molecule="O=C(NCCc1cccc(Cl)c1)c1ccc2c(c1)N=C(N1CCCCC1)c1ccccc1S2 [drawing 973]" experimental_target="CB1 (mutant) (Homo sapiens, UniProt P21554)" result_number=108
molecule=O=C(c1ccc2c(c1)N=C(c1ccccc1F)c1ccccc1S2)N1CCCCC1 experimental_target="CB1 (mutant) (Homo sapiens, UniProt P21554)" result_number=73
molecule="O=C(NN1CCCCCC1)c1ccc2c(c1)N=C(c1ccc(F)cc1)c1ccccc1S2 [drawing 1009]" experimental_target="CB1 (mutant) (Homo sapiens, UniProt P21554)" result_number=92
molecule="O=C(NCCc1ccc(Cl)cc1)c1ccc2c(c1)N=C(N1CCC(F)(F)CC1)c1ccccc1S2 [drawing 628]" experimental_target="CB1 (mutant) (Homo sapiens, UniProt P21554)" result_number=99
molecule="Cc1ccc(N2CCN(C(=O)c3ccc4c(c3)N=C(c3ccc(Cl)cc3)c3ccccc3S4)CC2)c(C)c1 [drawing 970]" experimental_target="CB1 (mutant) (Homo sapiens, UniProt P21554)" result_number=94

---

# EXPERIMENTAL TARGET: CB1 (mutant) (Homo sapiens, UniProt P21554)
# EXPERIMENT DESCRIPTION: R-SAT functional receptor assay, CB1 (mutant, truncated after amino acid 417)
# Type: cell-based
# ASSAY CONTEXT: Appendix A; R-SAT CB1; receptor form not stated; relative to SR141716 (100%); read-out: % Inhibition
MEASURED ENDPOINT: Emax (%)

molecule=CCONC(=O)c1ccc2c(c1)N=C(c1cccc(F)c1)c1ccccc1S2 result_number=81
molecule=CONC(=O)c1ccc2c(c1)N=C(c1cccc(F)c1)c1ccccc1S2 result_number=67
molecule="CCOCCNC(=O)c1ccc2c(c1)N=C(c1ccc(Cl)cc1)c1ccccc1S2 [drawing 604]" result_number=92
molecule="O=C(NCCCc1ccccc1)c1ccc2c(c1)N=C(c1cccc(Cl)c1)c1ccccc1S2 [drawing 615]" result_number=110
molecule="C[C@@H]1CCC[C@H](C)N1NC(=O)c1ccc2c(c1)N=C(c1cccc(F)c1)c1ccccc1S2 [drawing 727]" result_number=120
molecule="COc1cccc(C2=Nc3cc(C(=O)NCCC(F)(F)F)ccc3Sc3ccccc32)n1 [drawing 707]" result_number=104
molecule=CONC(=O)c1ccc2c(c1)N=C(c1ccc(F)cc1)c1ccccc1S2 result_number=65
molecule="O=C(NCCc1cccc(Cl)c1)c1ccc2c(c1)N=C(c1ccccc1)c1ccccc1S2 [drawing 1069]" result_number=102
molecule="O=C(NCc1cccc(Cl)c1)c1ccc2c(c1)N=C(c1cccc(Cl)c1)c1cc(F)ccc1S2 [drawing 651]" result_number=107
molecule="O=C(NCCc1cccc(Cl)c1)c1ccc2c(c1)N=C(c1ccc(Cl)cc1)c1ccccc1S2 [drawing 911]" result_number=99
molecule="O=C(NCc1ccccc1Br)c1ccc2c(c1)N=C(c1ccccc1)c1ccccc1S2 [drawing 700]" result_number=83
molecule="O=C(NCCc1ccccn1)c1ccc2c(c1)N=C(c1ccc(Cl)cc1)c1ccccc1S2 [drawing 1049]" result_number=93
molecule="Cc1ccsc1C1=Nc2cc(C(=O)NC3CCCC3)ccc2Sc2ccccc21 [drawing 652]" result_number=81
molecule=CC(C)CNC(=O)c1ccc2c(c1)N=C(c1ccccc1Cl)c1ccccc1S2 result_number=86
molecule=COc1ccc(C2=Nc3cc(C(=O)NCc4ccccn4)ccc3Sc3ccccc32)cc1 result_number=93
molecule="O=C(NCc1ccc(F)cc1)c1ccc2c(c1)N=C(c1ccc(Cl)cc1)c1ccccc1S2(=O)=O [drawing 961]" result_number=108
molecule=CON(C)C(=O)c1ccc2c(c1)N=C(c1ccccn1)c1ccccc1S2 result_number=8
molecule="CCN(CCNC(=O)c1ccc2c(c1)N=C(c1ccccc1F)c1ccccc1S2)c1ccccc1 [drawing 1117]" result_number=100
molecule=O=C(NCc1ccncc1)c1ccc2c(c1)N=C(N1CCCCC1)c1ccccc1S2 result_number=81
molecule=CCCCN(C)C(=O)c1ccc2c(c1)N=C(c1ccccc1Cl)c1ccccc1S2 result_number=40
molecule="O=C(NCc1ccc(F)cc1)c1ccc2c(c1)N=C(C1CCCCC1)c1ccccc1S2 [drawing 591]" result_number=102
molecule="CCCNC(=O)c1ccc2c(c1)N=C(c1cccc(Cl)c1)c1ccccc1S2 [drawing 641]" result_number=107
molecule=CCCC1=Nc2cc(C(=O)NCCN3CCN(c4cccc(C)c4C)CC3)ccc2Sc2ccccc21 result_number=84
molecule=CONC(=O)c1ccc2c(c1)N=C(c1ccc(Cl)cc1F)c1ccccc1S2 result_number=69
molecule=Cc1cccnc1C1=Nc2cc(C(=O)NC3CCCC3)ccc2Sc2ccccc21 result_number=57
molecule="O=C(NNC(O)c1ccc2c(c1)N=C(c1cccc(Br)c1)c1ccccc1S2)c1ccccc1 (stereo not drawn)" result_number=76
molecule="COc1cccc(C2=Nc3cc(C(=O)NC4CCC(F)(F)CC4)ccc3Sc3ccccc32)n1 [drawing 653]" result_number=104
molecule="COCCNC(=O)c1ccc2c(c1)N=C(c1cccc(Cl)c1)c1ccccc1S2 [drawing 849]" result_number=110
molecule="Cc1ccc(CNC(=O)c2ccc3c(c2)N=C(c2ccsc2)c2ccccc2S3)o1 [drawing 803]" result_number=94
molecule="O=C(NN1CCCCCC1)c1ccc2c(c1)N=C(c1ccc(Cl)s1)c1ccccc1S2 [drawing 797]" result_number=105
molecule=CC(C)NC(=O)c1ccc2c(c1)N=C(c1ccc(Cl)cc1Cl)c1ccccc1S2 result_number=45
molecule=O=C(c1ccc2c(c1)N=C(N1CCCCC1)c1ccccc1S2)N1CCCCC1 result_number=89
molecule="CCCCNC(=O)c1ccc2c(c1)N=C(c1ccc(Cl)cn1)c1cc(F)ccc1S2 [drawing 560]" result_number=100
molecule="C[C@@H]1CCC[C@H](C)N1NC(=O)c1ccc2c(c1)N=C(c1cccc(Cl)c1)c1ccccc1S2 [drawing 847]" result_number=100
molecule=O=C(NN1CCCCC1)c1ccc2c(c1)N=C(C1CCCCC1)c1ccccc1C2 result_number=87
molecule="O=C(NCc1ccccc1)c1ccc2c(c1)N=C(c1ccccc1F)c1ccccc1S2 [drawing 1015]" result_number=96
